- subject-of-test: Disintegrin and metalloproteinase domain-containing protein 17 (Homo sapiens, UniProt P78536)
- Sequence (P78536 whole entry, the tested form may be a part): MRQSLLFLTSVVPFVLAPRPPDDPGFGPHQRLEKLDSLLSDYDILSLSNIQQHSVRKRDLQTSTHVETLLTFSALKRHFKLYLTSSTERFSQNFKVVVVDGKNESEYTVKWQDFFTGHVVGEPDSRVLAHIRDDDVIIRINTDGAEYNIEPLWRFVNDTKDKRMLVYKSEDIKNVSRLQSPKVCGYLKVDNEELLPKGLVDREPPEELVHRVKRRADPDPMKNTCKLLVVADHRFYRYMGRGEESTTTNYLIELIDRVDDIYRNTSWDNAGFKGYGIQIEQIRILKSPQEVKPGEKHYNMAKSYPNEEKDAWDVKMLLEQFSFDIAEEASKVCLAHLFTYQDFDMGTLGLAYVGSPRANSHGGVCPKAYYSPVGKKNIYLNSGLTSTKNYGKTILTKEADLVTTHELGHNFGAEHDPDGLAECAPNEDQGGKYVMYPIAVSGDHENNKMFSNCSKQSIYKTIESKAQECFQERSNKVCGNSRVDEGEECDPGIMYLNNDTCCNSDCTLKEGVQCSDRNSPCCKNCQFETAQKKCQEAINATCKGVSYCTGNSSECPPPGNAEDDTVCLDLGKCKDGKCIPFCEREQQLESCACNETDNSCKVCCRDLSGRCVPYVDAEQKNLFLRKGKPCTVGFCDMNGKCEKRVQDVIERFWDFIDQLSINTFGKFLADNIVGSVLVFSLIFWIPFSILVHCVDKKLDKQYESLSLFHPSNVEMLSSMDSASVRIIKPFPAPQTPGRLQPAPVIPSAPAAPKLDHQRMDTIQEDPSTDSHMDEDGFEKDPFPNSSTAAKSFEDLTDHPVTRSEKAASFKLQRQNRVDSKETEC
- assay-method-text: Inhibition of TACE (unknown origin)
Would you kindly list IC50 for each of these compounds?
One number for each entry, in nM.

{"chemical-smiles": "COCCOc1cc(CCC[C@H]2C(=O)N[C@H](C(=O)c3ccccc3)Cc3ccc(cc3)OCCCC[C@@H]2C(=O)NO)cc(OC)c1", "unit-tag": "nM", "IC50": 79.4}
{"chemical-smiles": "CNC(=O)[C@@H]1Cc2ccc(cc2)OCCCC[C@H](C(=O)NO)[C@@H](CCCc2ccc(Cl)cc2)C(=O)N1", "unit-tag": "nM", "IC50": 3.16}
{"chemical-smiles": "CNC(=O)[C@@H]1Cc2ccc(cc2)OCCCC[C@H](C(=O)NO)[C@@H](CCCc2cc(OC)ccc2OC)C(=O)N1", "unit-tag": "nM", "IC50": 6.31}
{"chemical-smiles": "O=C(c1ccccc1)[C@@H]1Cc2ccc(cc2)OCCCC[C@H](C(=O)NO)[C@@H](CCCc2cc(Br)cc(Br)c2)C(=O)N1", "unit-tag": "nM", "IC50": 79.4}

Okay, next one:
Determine its reported IC50: `CNC(=O)[C@@H]1Cc2ccc(cc2)OCCCC[C@H](C(=O)NO)[C@@H](CCCc2cc(C(F)(F)F)cc(C(F)(F)F)c2)C(=O)N1`
31.6

====

- subject-of-test: Disintegrin and metalloproteinase domain-containing protein 17 (Homo sapiens, UniProt P78536)
- assay-method-text: Inhibition of recombinant TACE catalytic domain (unknown origin) using Abz-LAQAVRSSSR-Dpa as substrate preincubated for 10 mins followed by substrate addition measured after 10 mins by FRET assay
- measurement-conditions: read-out: IC50
Would you kindly list IC50 for each of these molecules?

{"molecule": "Cc1cc(COc2ccc(S(=O)(=O)N[C@@H]3CN(C(=O)OC(C)(C)C)C[C@@H]3C(=O)NO)cc2)c2ccccc2n1 (relative stereo)", "IC50": "0.6 nM"}

Give IC50 for each of the items listed below.
1. Cc1cc(COc2ccc(S(=O)(=O)N[C@@H]3CNC[C@@H]3C(=O)NO)cc2)c2ccccc2n1 (relative stereo)
2. Cc1cc(COc2ccc(S(=O)(=O)N[C@@H]3CCN(C=O)C[C@]3(C)C(=O)NO)cc2)c2ccccc2n1

1. 4.7 nM
2. 0.6 nM

Give IC50 for each of the items listed below.
1. Cc1cc(COc2ccc(S(=O)(=O)N[C@@H]3[C@H]4CC[C@H](C4)[C@@H]3C(=O)NO)cc2)c2ccccc2n1
2. Cc1cc(COc2ccc(S(=O)(=O)N(C)C3C(C(=O)NO)[C@@H]4CC[C@H]3O4)cc2)c2ccccc2n1 (relative stereo; form 1)

1: 0.6 nM; 2: 43 nM

Give IC50 for each of the items listed below.
1. Cc1cc(COc2ccc(S(=O)(=O)N(C)C3C(C(=O)NO)[C@@H]4CC[C@H]3O4)cc2)c2ccccc2n1 (relative stereo; form 2)
2. CC(=O)N1C[C@H](C(=O)NO)[C@H](NS(=O)(=O)c2ccc(OCc3cc(C)nc4ccccc34)cc2)C1 (relative stereo)
3. Cc1cc(COc2ccc(S(=O)(=O)N[C@@H]3CCC[C@]3(C)C(=O)NO)cc2)c2ccccc2n1
4. Cc1cc(COc2ccc(S(=O)(=O)N(C)[C@@H]3CCC[C@]3(CO)C(=O)NO)cc2)c2ccccc2n1
5. Cc1cc(COc2ccc(S(=O)(=O)N[C@@H]3CCCC[C@@H]3C(=O)NO)cc2)c2ccccc2n1 (relative stereo)
6. Cc1cc(COc2ccc(S(=O)(=O)N(C)[C@@H]3CCC[C@@H]3C(=O)NO)cc2)c2ccccc2n1 (relative stereo)
7. Cc1cc(COc2ccc(S(=O)(=O)N[C@@H]3CN(C(=O)OC(C)(C)C)CC[C@H]3C(=O)NO)cc2)c2ccccc2n1
8. Cc1cc(COc2ccc(S(=O)(=O)N[C@]3(C)CCCC[C@@H]3C(=O)NO)cc2)c2ccccc2n1 (racemic)

1. 2 nM
2. 0.6 nM
3. 0.6 nM
4. 0.6 nM
5. 1 nM
6. 0.6 nM
7. 0.7 nM
8. 0.6 nM

Determine its reported IC50: Cc1cc(COc2ccc(S(=O)(=O)N[C@H]3CCCC[C@@H]3C(=O)NO)cc2)c2ccccc2n1 (relative stereo)
1.8 nM

These entries and their values trace back to ChEMBL document CHEMBL4007472.
